- PROCEDURE DETAILS: Lipophilicity, logD of compound at pH 7.4
- Type: physicochemical
- CONDITIONS USED: buffer
QUANTITY MEASURED: logD
Respond with the number and no other words.

Please give the measured logD for this molecule: O=C([C@@H](Cc1cccc(C(F)(F)F)c1)NS(=O)(=O)c1cc(F)c2c(c1)CCNC2)N1CCCC1
2.3

---

- PROCEDURE DETAILS: Permeability of compound in MDCKII-LE cells
- Format: ADME, cell-based, Canis lupus familiaris
- CONDITIONS USED: dog, MDCK; read-out: permeability
QUANTITY MEASURED: Papp (×10⁻⁶ cm/s)
Write the answer as a number in ×10⁻⁶ cm/s, unit excluded.

Please give the measured Papp for this compound: O=C([C@@H](Cc1cccc(C(F)(F)F)c1)NS(=O)(=O)c1cc(F)c2c(c1)CCNC2)N1CCCC1
6.48
